Tested on: Enterococcus faecalis
Assay Overview: Antibacterial activity against Enterococcus faecalis ATCC 29212 assessed as growth inhibition by broth dilution method
Assay type: functional
Readout Kind: MIC

Completed entries (count: 2):
INSERT INTO assay_data (smiles_str, tested_system, reading) VALUES
  ('CCCCCCCCC(=O)N[C@@H](C(=O)N[C@H](CCN)C(=O)NCC(=O)N[C@H](CO)C(=O)N[C@H](Cc1c[nH]c2ccccc12)C(=O)N[C@@H](CO)C(=O)N[C@@H](CCN)C(=O)N[C@H](CCN)C(=O)N[C@@H](Cc1ccccc1)C(=O)N[C@@H](CCC(=O)O)C(=O)N[C@H](C(=O)N[C@@H](C(=O)N[C@@H](C)C(=O)O)[C@@H](C)CC)C(C)C)C(C)C', 'Enterococcus faecalis', '100 µg/mL'),
  ('CC[C@H](C)[C@@H](NC(=O)[C@@H](NC(=O)[C@H](CCC(=O)O)NC(=O)[C@H](Cc1ccccc1)NC(=O)[C@@H](CCN)NC(=O)[C@H](CCN)NC(=O)[C@H](CO)NC(=O)[C@@H](Cc1c[nH]c2ccccc12)NC(=O)[C@@H](CO)NC(=O)CNC(=O)[C@@H](CCN)NC(=O)[C@H](NC(=O)CCCC[C@@H]1SC[C@@H]2NC(=O)N[C@@H]21)C(C)C)C(C)C)C(=O)N[C@@H](C)C(=O)O', 'Enterococcus faecalis', '> 100 µg/mL');

Return reported MIC values for all items listed beneath this line.
1. CCCCCCCCCCCCCC(=O)N[C@@H](C(=O)N[C@H](CCN)C(=O)NCC(=O)N[C@H](CO)C(=O)N[C@H](Cc1c[nH]c2ccccc12)C(=O)N[C@@H](CO)C(=O)N[C@@H](CCN)C(=O)N[C@H](CCN)C(=O)N[C@@H](Cc1ccccc1)C(=O)N[C@@H](CCC(=O)O)C(=O)N[C@H](C(=O)N[C@@H](C(=O)N[C@@H](C)C(=O)O)[C@@H](C)CC)C(C)C)C(C)C
2. CC[C@H](C)[C@@H](NC(=O)[C@@H](NC(=O)[C@H](CCC(=O)O)NC(=O)[C@H](Cc1ccccc1)NC(=O)[C@@H](CCN)NC(=O)[C@H](CCN)NC(=O)[C@H](CO)NC(=O)[C@@H](Cc1c[nH]c2ccccc12)NC(=O)[C@@H](CO)NC(=O)CNC(=O)[C@@H](CCN)NC(=O)[C@H](NC(=O)CCc1c2ccccc2cc2ccccc12)C(C)C)C(C)C)C(=O)N[C@@H](C)C(=O)O
3. CC[C@@H](C)CC[C@@H](O)CC(=O)N[C@@H](C(=O)N[C@H](CCN)C(=O)NCC(=O)N[C@H](CO)C(=O)N[C@H](Cc1c[nH]c2ccccc12)C(=O)N[C@@H](CO)C(=O)N[C@@H](CCN)C(=O)N[C@H](CCN)C(=O)N[C@@H](Cc1ccccc1)C(=O)N[C@@H](CCC(=O)O)C(=O)N[C@H](C(=O)N[C@@H](C(=O)N[C@@H](C)C(=O)O)[C@@H](C)CC)C(C)C)C(C)C

Reply:
["> 100 µg/mL", "> 100 µg/mL", "> 100 µg/mL"]

Query: Fill in reported MIC for this entry: `CC[C@H](C)[C@@H](NC(=O)[C@@H](NC(=O)[C@H](CCC(=O)O)NC(=O)[C@H](Cc1ccccc1)NC(=O)[C@@H](CCN)NC(=O)[C@H](CCN)NC(=O)[C@H](CO)NC(=O)[C@@H](Cc1c[nH]c2ccccc12)NC(=O)[C@@H](CO)NC(=O)CNC(=O)[C@@H](CCN)NC(=O)[C@H](NC(C)=O)C(C)C)C(C)C)C(=O)N[C@@H](C)C(=O)O`
Reply: > 100 µg/mL

* * *

Hi there, I'd appreciate the recorded MIC for every entry that follows.
Test system: Staphylococcus aureus
Assay Overview: Antibacterial activity against Staphylococcus aureus ATCC 29213 assessed as growth inhibition by broth dilution method
Format: functional

Completed entries (count: 4):
INSERT INTO assay_data (smiles_str, reading) VALUES
  ('CC[C@@H](C)CC[C@H](O)CC(=O)N[C@@H](C(=O)N[C@H](CCN)C(=O)NCC(=O)N[C@H](CO)C(=O)N[C@H](Cc1c[nH]c2ccccc12)C(=O)N[C@@H](CO)C(=O)N[C@@H](CCN)C(=O)N[C@H](CCN)C(=O)N[C@@H](Cc1ccccc1)C(=O)N[C@@H](CCC(=O)O)C(=O)N[C@H](C(=O)N[C@@H](C(=O)N[C@@H](C)C(=O)O)[C@@H](C)CC)C(C)C)C(C)C', '> 100 µg/mL'),
  ('CCCCCCC(=O)N[C@@H](C(=O)N[C@H](CCN)C(=O)NCC(=O)N[C@H](CO)C(=O)N[C@H](Cc1c[nH]c2ccccc12)C(=O)N[C@@H](CO)C(=O)N[C@@H](CCN)C(=O)N[C@H](CCN)C(=O)N[C@@H](Cc1ccccc1)C(=O)N[C@@H](CCC(=O)O)C(=O)N[C@H](C(=O)N[C@@H](C(=O)N[C@@H](C)C(=O)O)[C@@H](C)CC)C(C)C)C(C)C', '> 100 µg/mL'),
  ('CC[C@H](C)CC[C@@H](O)CC(=O)N[C@@H](C(=O)N[C@H](CCN)C(=O)NCC(=O)N[C@H](CO)C(=O)N[C@H](Cc1c[nH]c2ccccc12)C(=O)N[C@@H](CO)C(=O)N[C@@H](CCN)C(=O)N[C@H](CCN)C(=O)N[C@@H](Cc1ccccc1)C(=O)N[C@@H](CCC(=O)O)C(=O)N[C@H](C(=O)N[C@@H](C(=O)N[C@@H](C)C(=O)O)[C@@H](C)CC)C(C)C)C(C)C', '> 100 µg/mL'),
  ('CC[C@H](C)[C@@H](NC(=O)[C@@H](NC(=O)[C@H](CCC(=O)O)NC(=O)[C@H](Cc1ccccc1)NC(=O)[C@@H](CCN)NC(=O)[C@H](CCN)NC(=O)[C@H](CO)NC(=O)[C@@H](Cc1c[nH]c2ccccc12)NC(=O)[C@@H](CO)NC(=O)CNC(=O)[C@@H](CCN)NC(=O)[C@H](NC(=O)CC12CC3CC(CC(C3)C1)C2)C(C)C)C(C)C)C(=O)N[C@@H](C)C(=O)O', '50 µg/mL');

Alright, here's another molecule for you.
Query: Fill in reported MIC for this entry: `CCCCCCCCCCC(=O)N[C@@H](C(=O)N[C@H](CCN)C(=O)NCC(=O)N[C@H](CO)C(=O)N[C@H](Cc1c[nH]c2ccccc12)C(=O)N[C@@H](CO)C(=O)N[C@@H](CCN)C(=O)N[C@H](CCN)C(=O)N[C@@H](Cc1ccccc1)C(=O)N[C@@H](CCC(=O)O)C(=O)N[C@H](C(=O)N[C@@H](C(=O)N[C@@H](C)C(=O)O)[C@@H](C)CC)C(C)C)C(C)C`
Reply: > 100 µg/mL

* * *

Test system: Acinetobacter baumannii
Assay Overview: Antibacterial activity against Acinetobacter baumannii ATCC 19606 assessed as growth inhibition by broth dilution method
Format: functional
Readout Kind: MIC
The reply must contain the numeric value and, after it, the unit.

INSERT INTO assay_data (smiles_str, reading) VALUES
  ('CC[C@H](C)[C@@H](NC(=O)[C@@H](NC(=O)[C@H](CCC(=O)O)NC(=O)[C@H](Cc1ccccc1)NC(=O)[C@@H](CCN)NC(=O)[C@H](CCN)NC(=O)[C@H](CO)NC(=O)[C@@H](Cc1c[nH]c2ccccc12)NC(=O)[C@@H](CO)NC(=O)CNC(=O)[C@@H](CCN)NC(=O)[C@H](NC(=O)CCc1c2ccccc2cc2ccccc12)C(C)C)C(C)C)C(=O)N[C@@H](C)C(=O)O', '25 µg/mL');

Alright, here's another compound for you.
Query: Fill in reported MIC for this entry: `CC[C@H](C)CC[C@H](O)CC(=O)N[C@@H](C(=O)N[C@H](CCN)C(=O)NCC(=O)N[C@H](CO)C(=O)N[C@H](Cc1c[nH]c2ccccc12)C(=O)N[C@@H](CO)C(=O)N[C@@H](CCN)C(=O)N[C@H](CCN)C(=O)N[C@@H](Cc1ccccc1)C(=O)N[C@@H](CCC(=O)O)C(=O)N[C@H](C(=O)N[C@@H](C(=O)N[C@@H](C)C(=O)O)[C@@H](C)CC)C(C)C)C(C)C`
Reply: 25 µg/mL

* * *

System: Enterococcus faecalis
Assay Overview: Antibacterial activity against Enterococcus faecalis ATCC 29212 assessed as growth inhibition by broth dilution method
Type: functional
Readout Kind: MIC

INSERT INTO assay_data (smiles_str, tested_system, readout_kind, reading) VALUES
  ('CC[C@H](C)CC[C@H](O)CC(=O)N[C@@H](C(=O)N[C@H](CCN)C(=O)NCC(=O)N[C@H](CO)C(=O)N[C@H](Cc1c[nH]c2ccccc12)C(=O)N[C@@H](CO)C(=O)N[C@@H](CCN)C(=O)N[C@H](CCN)C(=O)N[C@@H](Cc1ccccc1)C(=O)N[C@@H](CCC(=O)O)C(=O)N[C@H](C(=O)N[C@@H](C(=O)N[C@@H](C)C(=O)O)[C@@H](C)CC)C(C)C)C(C)C', 'Enterococcus faecalis', 'MIC', '> 100 µg/mL');

Alright, here's another molecule for you.
Query: Fill in reported MIC for this entry: `CCCCCCCCCCCCCCCC(=O)N[C@@H](C(=O)N[C@H](CCN)C(=O)NCC(=O)N[C@H](CO)C(=O)N[C@H](Cc1c[nH]c2ccccc12)C(=O)N[C@@H](CO)C(=O)N[C@@H](CCN)C(=O)N[C@H](CCN)C(=O)N[C@@H](Cc1ccccc1)C(=O)N[C@@H](CCC(=O)O)C(=O)N[C@H](C(=O)N[C@@H](C(=O)N[C@@H](C)C(=O)O)[C@@H](C)CC)C(C)C)C(C)C`
Reply: > 100 µg/mL
